- TESTED_SYSTEM: Menin-MLL1 (Homo sapiens)
- Construct: Menin (2-610) isform2
- Sequence (O00255 2-610): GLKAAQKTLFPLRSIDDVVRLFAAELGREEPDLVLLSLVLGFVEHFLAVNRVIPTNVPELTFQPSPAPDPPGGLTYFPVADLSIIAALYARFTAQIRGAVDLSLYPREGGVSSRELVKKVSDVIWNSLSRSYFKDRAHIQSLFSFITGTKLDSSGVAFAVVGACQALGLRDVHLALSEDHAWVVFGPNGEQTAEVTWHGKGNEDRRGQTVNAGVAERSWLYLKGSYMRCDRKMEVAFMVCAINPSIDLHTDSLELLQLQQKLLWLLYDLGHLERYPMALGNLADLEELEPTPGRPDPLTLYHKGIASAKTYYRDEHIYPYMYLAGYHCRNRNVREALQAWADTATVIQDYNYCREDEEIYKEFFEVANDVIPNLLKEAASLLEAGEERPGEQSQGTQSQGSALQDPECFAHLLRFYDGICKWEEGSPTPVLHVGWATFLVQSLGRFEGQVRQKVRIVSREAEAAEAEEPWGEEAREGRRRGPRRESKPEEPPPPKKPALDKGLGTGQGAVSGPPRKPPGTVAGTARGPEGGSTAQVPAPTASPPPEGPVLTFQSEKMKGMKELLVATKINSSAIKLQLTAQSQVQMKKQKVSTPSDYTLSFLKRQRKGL
- TEST_DESCRIPTION: Menin-MLL1 inhibition assay (fluorescence polarization, Menin protein + FAM-MLL peptide)
- CONDITION_SUMMARY: Menin (2-610) isoform 2, FAM-labelled MLL peptide, mP readout; read-out: Biochemical assay Menin-MLL1 IC50
PROPERTY: IC50
Reply with a number, then the unit it belongs to.

Observed IC50 on Menin-MLL1 (Homo sapiens), entry CC[C@@H]1CCN[C@H]1C(=O)N1CCC2(CC1)CN(c1ncnnc1Oc1ccc(F)cc1C(=O)N(CC)C(C)C)C2 , equals 16 nM

Observed IC50 on Menin-MLL1 (Homo sapiens), entry O=C([C@@H]1C[C@@H](F)CN1)N1CCC2(CC1)CN(c1ncncc1Oc1ccc(F)cc1C(=O)N1C3CCC1COC3)C2 , equals 5.5 nM

Observed IC50 on Menin-MLL1 (Homo sapiens), entry COc1ccc(-c2cc(F)ccc2Oc2nncnc2N2CC3(CCN(C(=O)[C@H]4NC[C@@H]5CCC[C@@H]54)CC3)C2)c(C2CC2)n1 , equals 2.4 nM

Observed IC50 on Menin-MLL1 (Homo sapiens), entry CC[C@@H]1[C@@H](C(=O)N2CCC3(CC2)CN(c2ncnnc2Oc2ccc(F)cc2C(=O)N(CC)C(C)C)C3)NC[C@@H]1F , equals 3.6 nM

Observed IC50 on Menin-MLL1 (Homo sapiens), entry CO[C@H]1CCN[C@@H]1C(=O)N1CCC2(CC1)CN(c1ncnnc1Oc1ccc(F)cc1-c1ccc(C#N)nc1C1CC1)C2 , equals 6 nM

Observed IC50 on Menin-MLL1 (Homo sapiens), entry C[C@H]1COCCN1C(=O)c1cc(F)ccc1Oc1cncnc1N1CC2(CCN(C(=O)[C@@H]3C[C@@H](F)CN3)CC2)C1 , equals 10.9 nM

Observed IC50 on Menin-MLL1 (Homo sapiens), entry CCN(C(=O)c1cc(F)ccc1Oc1nncnc1N1CC2(CCN(C(=O)[C@H]3NCCC3(C)C)CC2)C1)C(C)C , equals 3.1 nM

Observed IC50 on Menin-MLL1 (Homo sapiens), entry CCN(C(=O)c1cc(F)ccc1Oc1nncnc1N1CC2(CCN(C(=O)[C@H]3NCc4ccccc43)CC2)C1)C(C)C , equals 5.5 nM

Observed IC50 on Menin-MLL1 (Homo sapiens), entry CCN(C(=O)c1cc(F)ccc1Oc1cncnc1N1CC2(CCN(C(=O)[C@@H]3C[C@]4(CN3)CC4(F)F)CC2)C1)C(C)C , equals 8.7 nM

Observed IC50 on Menin-MLL1 (Homo sapiens), entry CCN(C(=O)c1cc(F)ccc1Oc1cncnc1N1CC2(CCN(C(=O)[C@@H]3COCCN3)CC2)C1)C(C)C , equals 10.2 nM

Observed IC50 on Menin-MLL1 (Homo sapiens), entry CCN(C(=O)c1cc(F)ccc1Oc1nncnc1N1CC2(CCN(C(=O)[C@H]3NCC[C@@H]3CF)CC2)C1)C(C)C , equals 3.2 nM

Observed IC50 on Menin-MLL1 (Homo sapiens), entry CCN(C(=O)c1cc(F)ccc1Oc1cncnc1N1CC2(CCN(C(=O)[C@H]3NCC[C@@H]3C)CC2)C1)C(C)C , equals 3.6 nM

Observed IC50 on Menin-MLL1 (Homo sapiens), entry CCN(C(=O)c1cc(F)ccc1Oc1cncnc1N1CC2(CN(C(=O)[C@@H]3C[C@@H](F)CN3)C2)C1)C(C)C , equals 3.3 nM
